# System: 485368-065-R3-J5-PDC spheroids with HUVEC/MSC, viability;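 further: spheroids exposed to agents for seven days before readout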
# assayComment: Anticancer human tumor 485368-065-R3-J5-PDC patient-derived pancreatic carcinoma cell line growth inhibition [RAS]
# setupConditions: second compound 0.000949 µM; first compound 0.0316 µM; hits give low values
Decide using viability, T/C alone. Strictly below 40%: Criterion met. Equal to or above 40%: Criterion not met.

For orientation, consider the following solved cases.
[
  {
    "molecule": "C[C@@H](NC(=O)c1ncnc(N)c1Cl)c1ncc(C(=O)Nc2cc(C(F)(F)F)c(Cl)cn2)s1 + CCn1c(-c2cccnc2C(C)OC)c2c3cc(ccc31)N1CCOC(CC(NC(=O)C(C(C)C)N(C)C(=O)C3(F)CCN(C(=O)C#CC(C)(C)N(C)C)CC3)C(=O)N3CCCC(N3)C(=O)OCC(C)(C)C2)C1",
    "targetDesc": "485368-065-R3-J5-PDC spheroids with HUVEC/MSC, viability",
    "assignedClass": "Criterion not met"
  },
  {
    "molecule": "C=CC(=O)Nc1cc(Nc2nccc(-c3cn(C)c4ccccc34)n2)c(OC)cc1N(C)CCN(C)C + CCn1c(-c2cccnc2C(C)OC)c2c3cc(ccc31)N1CCOC(CC(NC(=O)C(C(C)C)N(C)C(=O)C3(F)CCN(C(=O)C#CC(C)(C)N(C)C)CC3)C(=O)N3CCCC(N3)C(=O)OCC(C)(C)C2)C1",
    "targetDesc": "485368-065-R3-J5-PDC spheroids with HUVEC/MSC, viability",
    "assignedClass": "Criterion not met"
  },
  {
    "molecule": "C[C@@H](NC(=O)c1ncnc(N)c1Cl)c1ncc(C(=O)Nc2cc(C(F)(F)F)c(Cl)cn2)s1 + CCn1c(-c2cc(N3CCN(C)CC3)cnc2C(C)OC)c2c3cc(ccc31)-c1csc(n1)CC(NC(=O)C1CC1C)C(=O)N1CCCC(N1)C(=O)OCC(C)(C)C2",
    "targetDesc": "485368-065-R3-J5-PDC spheroids with HUVEC/MSC, viability",
    "assignedClass": "Criterion not met"
  }
]

Q. Say whether its viability, T/C is strictly beneath 40%. Entry: C=CC(=O)Nc1cc(Nc2nccc(-c3cn(C)c4ccccc34)n2)c(OC)cc1N(C)CCN(C)C + CCn1c(-c2cc(N3CCN(C)CC3)cnc2C(C)OC)c2c3cc(ccc31)-c1csc(n1)CC(NC(=O)C1CC1C)C(=O)N1CCCC(N1)C(=O)OCC(C)(C)C2
A. Criterion met

Q. Say whether its viability, T/C is strictly beneath 40%. Entry: O=C(c1ccc(F)c(F)c1Nc1ccc(I)cc1F)N1CC(O)([C@@H]2CCCCN2)C1 + CCn1c(-c2cc(N3CCN(C)CC3)cnc2C(C)OC)c2c3cc(ccc31)-c1csc(n1)CC(NC(=O)C1CC1C)C(=O)N1CCCC(N1)C(=O)OCC(C)(C)C2
A. Criterion met

Q. Say whether its viability, T/C is strictly beneath 40%. Entry: CCC(CC)c1cc(NC2CCC(N)C2)n2nccc2n1 (centres undefined) + CCn1c(-c2cccnc2C(C)OC)c2c3cc(ccc31)N1CCOC(CC(NC(=O)C(C(C)C)N(C)C(=O)C3(F)CCN(C(=O)C#CC(C)(C)N(C)C)CC3)C(=O)N3CCCC(N3)C(=O)OCC(C)(C)C2)C1
A. Criterion not met

Q. Say whether its viability, T/C is strictly beneath 40%. Entry: C=CC(=O)N1CCN(c2nc(OCC3CCCN3C)nc3c(F)c(-c4nc(N)cc(C)c4C(F)(F)F)c(Cl)cc23)C(C)C1 (centres undefined) + CCn1c(-c2cccnc2C(C)OC)c2c3cc(ccc31)N1CCOC(CC(NC(=O)C(C(C)C)N(C)C(=O)C3(F)CCN(C(=O)C#CC(C)(C)N(C)C)CC3)C(=O)N3CCCC(N3)C(=O)OCC(C)(C)C2)C1
A. Criterion not met

Q. Say whether its viability, T/C is strictly beneath 40%. Entry: Cc1nc(N2CCC3(CC2)COC(C)C3N)c(CO)nc1Sc1ccnc(N)c1Cl (centres undefined) + CCn1c(-c2cc(N3CCN(C)CC3)cnc2C(C)OC)c2c3cc(ccc31)-c1csc(n1)CC(NC(=O)C1CC1C)C(=O)N1CCCC(N1)C(=O)OCC(C)(C)C2
A. Criterion met

These data points were gathered from PubChem BioAssay AID2060902.
